Tested on: TRPC4 beta (transient receptor potential cation channel C4), mouse
Test: potentiation of DAMGO EC20 TRPC4 response – cell-based, Fluo-4, HEK293 TRPC4beta/mu-opioid, confirmation (AID 2555)
Conditions: DAMGO EC20, Fluo-4 calcium flux, at 10 µM
Active and inactive are the calls of the source.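 The calls were made as follows: active = primary screen hit whose calcium fluorescence ratio, in both repeats, exceeds the weak agonist control mean by 3 SD; inactive = the rest.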
The reply should name one outcome from 1 (yes) = active, 0 (no) = inactive

# compound, label-value
measured = [
    ("Cc1ccc(S(=O)(=O)Nc2ccc(N=Nc3ccc(O)cc3)cc2)cc1", "0 (no)"),
    ("CC1CC(C)CN(CCCNC(=O)c2csc3c2CCCCC3)C1 (stereo not given)", "0 (no)"),
]

Query :: Which outcome did this test record for the compound OC1(c2ccc(Cl)cc2)CN(c2ccccc2)C2=[N+]1CCS2 (stereo not given) ?
Result :: 0 (no)

Query :: For CN1/C(=C\C(=O)C[n+]2ccc3ccccc3c2)C(C)(C)c2ccccc21 , which call appears in the assay record?
Result :: 0 (no)

Query :: Entry Cc1ccc(Cl)cc1N1CCN(Cc2nc3c(c(=O)[nH]c(=O)n3C)n2Cc2ccccc2F)CC1 : call = ?
Result :: 0 (no)

Query :: What outcome does the record of this test show for COc1ccc(S(=O)(=O)N2CCCCCC2)cc1C(=O)N(C)Cc1ccc(Cl)cc1Cl ?
Result :: 1 (yes)

Query :: Which outcome was entered for the compound COc1ccc(Br)cc1CNC(C)c1ccccc1 (stereo not given) in this test?
Result :: 0 (no)

Query :: State the result this test recorded for CNC[C@H](Cc1ccccc1)NC[C@@H](Cc1cccc2ccccc12)NCCc1ccc(C)cc1 .
Result :: 0 (no)

Query :: Write down the call the test reported for this compound. Item: FC(F)Oc1ccccc1NC(=S)Nc1cccc(Cl)c1Cl
Result :: 0 (no)

Query :: What did this assay record as the result for Cc1ccc(OCc2cc(C(=O)N(C)CCc3nc4ccccc4[nH]3)no2)cc1C ?
Result :: 0 (no)
